Just for reference, ChEMBL document CHEMBL3525927 is where these values come from.

- System: Brain
- recorded-conditions: rat, 5 h, 0.1 µM
- Description: Unbound volume of distribution in Sprague-Dawley rat brain slices at 100 nM after 5 hrs
readout-label: log10 Vdu (log10 of the value in mL/g)
The base-10 logarithm of Vdu, taken with Vdu in mL/g, is what appears here.

Solved cases below.
compound=NCC1(CC(=O)O)CCCCC1 readout_label="log10 Vdu" observed=0.66
compound=Cc1ncc2n1-c1ccc(Cl)cc1C(c1ccccc1F)=NC2 readout_label="log10 Vdu" observed=1.46
compound="CN(C)C(=O)C(CCN1CCC(O)(c2ccc(Cl)cc2)CC1)(c1ccccc1)c1ccccc1 [LOPERAMIDE]" readout_label="log10 Vdu" observed=2.57

State, in one line, measured log10 Vdu of `C[C@H]1COc2c(N3CCN(C)CC3)c(F)cc3c(=O)c(C(=O)O)cn1c23.C[C@H]1COc2c(N3CCN(C)CC3)c(F)cc3c(=O)c(C(=O)O)cn1c23.O` 0.23

State, in one line, measured log10 Vdu of CC(NC(C)(C)C)C(=O)c1cccc(Cl)c1 (stereo not given) 1.20
